src = PubChem BioAssay (NCI)

System: MDA-MB-231 breast
protocolText: NCI tumour cell line growth inhibition, 48 h
A collection of molecules and their measured GI50

Task: Requested field: GI50. Item: CN(C)c1ccc(-c2cc(-c3ccc(Nc4nc(Nc5ccc(Cl)cc5)nc(Nc5ccc(Cl)cc5)n4)cc3)no2)cc1
Result: 9.66 µM

Task: Let us now turn to Cc1cc2nc(C(Cl)Cl)nc(-c3ccc(Cl)cc3)n2n1
Result: 1.23 µM

Task: Let us now turn to COC(=O)Nc1nc2ccc(S(=O)c3ccccc3)cc2[nH]1 (stereo unspecified)
Result: 7.45 µM

Task: Let us now turn to COc1ccc(-c2cc(-c3ccc(Nc4nc(Nc5ccccc5)nc(Nc5ccc(Cl)cc5)n4)cc3)nc(N)c2C#N)cc1
Result: 1.01 µM

Task: Let us now turn to CC(C)c1ccc(C(C)C(=O)N(CC2=C(C(C)c3ccccn3)c3ccccc3C2)C(C)C)cc1 (stereo unspecified)
Result: 3.47 µM

---
Task: Requested field: GI50. Item: COc1ccc(C2=CSc3cc(Cl)c(C)cc3S(=O)(=O)N2C(C)=O)cc1
Result: 14.5 µM
